# Target or system: SHP2-C SH2;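 note: peptide library displayed on the E. coli surface as eCPX fusions, selected cells deep-sequenced, score is each peptide's frequency after selection divided by its frequency in the input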
# Experiment: SH2 binding enrichment of the phosphorylated peptide, bacterial display (enrichment ratio); higher = better substrate or ligand; peptides without Tyr show the background
Parameter measured: SH2 binding enrichment
Lab note: jot down the number only; don't add units.

- Residue codes: "KGEDFYCVTYH [FHL1_Y149_C153Y]"
  Target or system: "SHP2-C SH2"
  SH2 binding enrichment: 0.484
- Residue codes: "EEALHYLTRVE [SET_Y119]"
  Target or system: "SHP2-C SH2"
  SH2 binding enrichment: 1.16
- Residue codes: "TTTQAYRVDER [PRKN_Y391]"
  Target or system: "SHP2-C SH2"
  SH2 binding enrichment: 0.597
- Residue codes: "AEKPKYQINNI [TJP1_Y1602]"
  Target or system: "SHP2-C SH2"
  SH2 binding enrichment: 0.766

Tell me measured SH2 binding enrichment for DLAAQYTTVGH [SGSH_Y240_R245H] please.
1.41

Tell me measured SH2 binding enrichment for EASEQYLTKAS [NRCAM_Y739] please.
0.696

Tell me measured SH2 binding enrichment for ITKQEYDEAGP [ACTA1_Y364] please.
0.786
